target: MyD88^TIR (Homo sapiens, UniProt Q99836); construct: MyD88 (residues 148–296); 6xHis; made in house; host or cells: E. coli BL21 (DE3); test: T‐Surf phage library (P8 and P3) selection against MyD88^TIR, four rounds, NGS read counts; format: binding; conditions: P8 library, selection against MyD88, rank after grouping
Sequence (Q99836 148-296): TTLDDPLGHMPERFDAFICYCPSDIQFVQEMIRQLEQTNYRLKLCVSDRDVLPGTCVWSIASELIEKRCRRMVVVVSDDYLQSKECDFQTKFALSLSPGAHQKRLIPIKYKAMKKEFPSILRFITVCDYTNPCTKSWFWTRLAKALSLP
# P8_MyD88 Rank (after) annotations
Output: the number by itself.

>  <monomer.sequence>
WDFCEQYGTVLGSSVL

>  <reported.value>
555

$$$$
>  <monomer.sequence>
KFFLFFMILAFSMNR

>  <reported.value>
487

$$$$
>  <monomer.sequence>
WALVVLLQILHARELF

>  <reported.value>
490

$$$$
>  <monomer.sequence>
DPQDLAWFSERLVSQF

>  <reported.value>
551

$$$$
>  <monomer.sequence>
YAASTWWHTVLARLMG

>  <reported.value>
540

$$$$
>  <monomer.sequence>
SIWWILNELQEILNYQ

>  <reported.value>
542

$$$$

# query: P8_MyD88 Rank (after) of entry WALDEVLKIQDDNETM
544
